meta.source: patent US20240327334A1

Can you tell me EC50 for the items I'm about to list?
Test system: SARS-CoV-2 replicon
Assay: microbe, parasite or virus in culture
Type: cell-based
Settings: Severe acute respiratory syndrome coronavirus 2, Huh-7

Query: Param item = "O=C(NC/C=C/C(=O)N1CC(F)(F)C1)C(=O)NCc1ccccc1C(=O)NC1(c2cccc3ccccc23)CC1" ; retrieve measured EC50.
Response: 1000 to 10000 nM

Query: Param item = "N#Cc1cccc(C#CCNC(=O)C(=O)NCc2ccccc2C(=O)NC2(c3ccc4ccccc4c3)CC2)n1" ; retrieve measured EC50.
Response: < 1000 nM

Query: Param item = "O=C(NCC#Cc1nccs1)C(=O)NCc1ccccc1C(=O)NC1(c2cc(Cl)cc(-c3cc4ccccc4s3)c2)CC1" ; retrieve measured EC50.
Response: < 1000 nM

Query: Param item = "N#CCNC(=O)C(=O)NCc1ccccc1C(=O)NC1(c2cc(-c3cnn(C4CC4)c3)cc(C(F)(F)F)c2)CC1" ; retrieve measured EC50.
Response: 1000 to 10000 nM

Query: Param item = "CN1CCC(n2cc(-c3cc(F)cc(C4(NC(=O)c5ccccc5CNC(=O)C(=O)NCC#Cc5ncco5)CC4)c3)cn2)CC1" ; retrieve measured EC50.
Response: < 1000 nM

Query: Param item = N#CN1CCC(C(=O)NCc2ccccc2C(=O)NC2(c3cccc4ccccc34)CC2)C1 (centres unmarked) ; retrieve measured EC50.
Response: < 1000 nM

Query: Param item = "N#CCNC(=O)C(=O)NCc1ccccc1C(=O)NC1(c2cc(-c3cccs3)cc(-c3cccs3)c2)CC1" ; retrieve measured EC50.
Response: 1000 to 10000 nM

Query: Param item = "N#CCNC(=O)C(=O)NCc1ccccc1C(=O)NC1(c2cc(F)c(F)c(-c3cnn(C4CC4)c3)c2)CC1" ; retrieve measured EC50.
Response: > 10000 nM

Query: Param item = "N#CCNC(=O)C(=O)NCc1ccccc1C(=O)NC1(c2cc(-c3cnn(C4CC4)c3)cc3ccccc23)CC1" ; retrieve measured EC50.
Response: < 1000 nM

Query: Param item = "O=C(NCC#Cc1nccs1)C(=O)NCc1ccccc1C(=O)NC1(c2cccc(-c3cnn(C4CC4)c3)c2Cl)CC1" ; retrieve measured EC50.
Response: < 1000 nM

Query: Param item = "CS(=O)(=O)/C=C/CNC(=O)C(=O)NCc1ccccc1C(=O)NC1(c2ccc3ccccc3c2)CC1" ; retrieve measured EC50.
Response: < 1000 nM

Query: Param item = "N#CCNC(=O)C(=O)NCc1ccccc1C(=O)NC1(c2cccc3nc(Cl)ccc23)CC1" ; retrieve measured EC50.
Response: < 1000 nM

Query: Param item = "C#CCNC(=O)C(=O)NCc1ccccc1C(=O)NC1(c2cc(Cl)cc(-c3cnn(C4CC4)c3)c2)CC1" ; retrieve measured EC50.
Response: < 1000 nM

Query: Param item = "COC(=O)/C=C/CNC(=O)C(=O)NCc1ccccc1C(=O)NC1(c2cccc3ccccc23)CC1" ; retrieve measured EC50.
Response: < 1000 nM

Query: Param item = "NC(=O)C(=O)NCc1ccccc1C(=O)NC1(c2cc(-c3cnn(C4CC4)c3)cc3ccccc23)CC1" ; retrieve measured EC50.
Response: 1000 to 10000 nM

Query: Param item = "N#CN1CC(CNC(=O)C(=O)NCc2ccccc2C(=O)NC2(c3cccc4ccccc34)CC2)C1" ; retrieve measured EC50.
Response: < 1000 nM

Query: Param item = "C#C[C@H](C)NC(=O)C(=O)NCc1ccccc1C(=O)NC1(c2cccc3ccccc23)CC1" ; retrieve measured EC50.
Response: < 1000 nM
